Ref: paper PMC3746831

Test system: HFF cells
Test: in vitro
Assay type: cell-based, human
Conditions: human
Readout: CC50

Test system HFF cells; read-out CC50; what value for Nc1nc2c(ncn2COCCO)c(=O)[nH]1 [ACV, Acyclovir, reference compound] ?
> 100 µM

###

Tested on: HFF cells
Test: in vitro
Type: cell-based, human
Each entry below carries its recorded CC50.

{"columns": ["Compound", "CC50"],
 "data": [
  ["CCCCCCC(O)CC=CCCCCCCCC(=O)OCCOCn1cnc2c(=O)[nH]c(N)nc21 (centres unmarked)", "> 300 µM"]
]}

Next compound, CC50 to be filled in.
API: value(readout=CC50, system=HFF cells) for record CCCCCCC(CCCCCCCCCCC(=O)OCCOCn1cnc2c(=O)[nH]c(N)nc21)OC(=O)CCCC[C@@H]1SC[C@@H]2NC(=O)N[C@@H]21 (some centres unmarked) [B-12HS-ACV, Biotin-12hydroxystearicacid-acyclovir]
> 300 µM

###

# EC50 per entry
System: Herpes Simplex Virus 1 (HSV-1), E-377 strain
Experiment: Plaque reduction assay for HSV-1 in HFF cells
Type: cell-based
Details: read-out: HSV-1 EC50; E-377 strain, HFF cells
# output: bare number, implied unit µM

Below: 2 compounds and their reported EC50.
{"columns": ["Compound", "Experimental System", "Unit Symbol", "EC50"],
 "data": [
  ["CCCCCCC(O)CC=CCCCCCCCC(=O)OCCOCn1cnc2c(=O)[nH]c(N)nc21 (stereo not shown)", "Herpes Simplex Virus 1 (HSV-1), E-377 strain", "µM", 8.3],
  ["CCCCCCC(O)CCCCCCCCCCC(=O)OCCOCn1cnc2c(=O)[nH]c(N)nc21 (stereo not shown) [12HS-ACV, 12hydroxystearicacid-acyclovir]", "Herpes Simplex Virus 1 (HSV-1), E-377 strain", "µM", 1.16]
]}

Below: the item to evaluate.
Form field - read-out: EC50; system: Herpes Simplex Virus 1 (HSV-1), E-377 strain; submitted item: Nc1nc2c(ncn2COCCOC(=O)CCCC[C@@H]2SC[C@@H]3NC(=O)N[C@@H]32)c(=O)[nH]1
182
